All values here come from patent US20260242735A1.

Below, each entry is listed with its recorded Mean % WT Binding.
Biological target: human CD33 V82A (human, UniProt P20138 18-364)
Sequence (P20138 18-364 V82A limits assumed): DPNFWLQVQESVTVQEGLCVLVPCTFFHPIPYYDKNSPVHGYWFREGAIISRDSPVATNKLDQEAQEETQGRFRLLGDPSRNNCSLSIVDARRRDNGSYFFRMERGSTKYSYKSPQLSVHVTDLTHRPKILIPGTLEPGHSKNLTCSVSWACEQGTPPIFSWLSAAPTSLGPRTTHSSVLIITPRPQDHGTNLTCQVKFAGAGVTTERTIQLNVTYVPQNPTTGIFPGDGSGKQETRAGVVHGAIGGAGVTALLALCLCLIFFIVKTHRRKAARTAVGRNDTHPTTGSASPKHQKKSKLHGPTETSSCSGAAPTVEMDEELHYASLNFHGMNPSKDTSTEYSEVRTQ
Test: alanine scan, flow cytometry;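 note: HEK293-T cells transiently expressing single-residue alanine mutants of CD33 (alanine swapped to serine), antibody binding read by fluorescence in duplicate, background-subtracted, expressed relative to wild-type CD33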
Report as a plain number; the unit % WT is understood.

Answered examples (3):
# binder, Mean % WT Binding / % WT
measured = [
    ("Refmab #4 (antibody, V domains shown, Full-length format is human IgG1 Fc silent (PG-LALA); The alanine scan used IgG or Fab) VH: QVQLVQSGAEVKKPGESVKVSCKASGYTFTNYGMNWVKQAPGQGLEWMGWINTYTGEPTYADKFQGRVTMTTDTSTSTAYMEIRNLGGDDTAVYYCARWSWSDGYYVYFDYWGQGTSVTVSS VL: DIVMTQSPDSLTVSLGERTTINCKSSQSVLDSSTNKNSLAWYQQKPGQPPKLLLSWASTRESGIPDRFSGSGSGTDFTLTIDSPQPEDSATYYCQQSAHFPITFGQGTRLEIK", 144),
    ("Refmab #1 (antibody, V domains shown, Full-length format is human IgG1 (Absolute Antibody Ab00283-10.0); The alanine scan used IgG or Fab; also called hP67.6) VH: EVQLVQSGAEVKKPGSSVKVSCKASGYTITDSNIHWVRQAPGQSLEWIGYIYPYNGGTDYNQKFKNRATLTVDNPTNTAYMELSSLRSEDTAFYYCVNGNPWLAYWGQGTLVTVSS VL: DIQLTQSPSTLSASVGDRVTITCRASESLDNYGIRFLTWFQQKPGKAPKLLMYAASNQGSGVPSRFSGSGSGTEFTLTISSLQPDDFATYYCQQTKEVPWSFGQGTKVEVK", 99.6),
    ("Refmab #3 (antibody, V domains shown, Full-length format is human IgG1 Fc silent (PG-LALA); The alanine scan used IgG or Fab) VH: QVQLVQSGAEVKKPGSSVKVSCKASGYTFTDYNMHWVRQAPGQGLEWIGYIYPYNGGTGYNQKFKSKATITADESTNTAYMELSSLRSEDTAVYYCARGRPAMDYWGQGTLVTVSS VL: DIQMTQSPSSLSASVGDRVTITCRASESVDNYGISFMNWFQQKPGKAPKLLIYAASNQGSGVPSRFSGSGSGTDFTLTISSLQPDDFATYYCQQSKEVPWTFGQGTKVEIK", 141),
]

Consider the binder Refmab #2 (antibody, V domains shown, Full-length format is human IgG1 Fc silent (PG-LALA); The alanine scan used IgG or Fab) VH: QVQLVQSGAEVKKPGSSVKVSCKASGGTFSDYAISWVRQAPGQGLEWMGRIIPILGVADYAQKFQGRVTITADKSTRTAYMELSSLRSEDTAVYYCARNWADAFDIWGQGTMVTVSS VL: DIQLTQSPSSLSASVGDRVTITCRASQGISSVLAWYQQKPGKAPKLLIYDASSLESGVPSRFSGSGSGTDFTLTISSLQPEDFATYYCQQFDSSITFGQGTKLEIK and give its measured Mean % WT Binding. 116
